All values here come from ChEMBL document CHEMBL5303573.

- experiment: The drug is tested on Clostridium asparagiforme strain: DSM15981 for biotransformation. The drug concentrations were measured before and after a 12-h incubation by liquid-chromatography-coupled mass spectrometry (LC–MS)
- Type: ADME
- Set-up: dose 2 uM, timepoint 0 vs 12 hours
- condition.label: enterocloster asparagiformis, 2 µM
assay.readout: Bacterial Biotransformation

# molecule, Bacterial Biotransformation
records = [
    ("COC1=C(OC)C(=O)C(CCCCCCCCCCO)=C(C)C1=O", "Compound NOT metabolized"),
    ("COc1ccc([C@@H]2Sc3ccccc3N(CCN(C)C)C(=O)[C@@H]2OC(C)=O)cc1", "Compound NOT metabolized"),
    ("CCCCC(=O)O[C@]1(C(=O)CO)[C@@H](C)C[C@H]2[C@@H]3CCC4=CC(=O)C=C[C@]4(C)[C@@]3(F)[C@@H](O)C[C@@]21C [BETAMETHASONE VALERATE]", "Compound NOT metabolized"),
    ("CC(Oc1c(Cl)cccc1Cl)C1=NCCN1 (stereo not drawn)", "Compound metabolized"),
    ("CN1CCN(C2=Nc3ccccc3Oc3ccc(Cl)cc32)CC1.O=C(O)CCC(=O)O [LOXAPINE SUCCINATE]", "Compound NOT metabolized"),
]

Which Bacterial Biotransformation reading was recorded for the molecule "CCCc1nc2c(C)cc(-c3nc4ccccc4n3C)cc2n1Cc1ccc(-c2ccccc2C(=O)O)cc1" ?
Compound NOT metabolized

How about this molecule: COC(=O)[C@H](c1ccccc1Cl)N1CCc2sccc2C1.O=S(=O)(O)O [CLOPIDOGREL BISULFATE]
Compound NOT metabolized

Okay, and "CCCc1nc(C(C)(C)O)c(C(=O)OCc2oc(=O)oc2C)n1Cc1ccc(-c2ccccc2-c2nnn[nH]2)cc1" ?
Compound metabolized

====

- experiment: The drug is tested on Bacteroides fragilis strain: HMW610 for biotransformation. The drug concentrations were measured before and after a 12-h incubation by liquid-chromatography-coupled mass spectrometry (LC–MS)
- condition.label: 2 µM
assay.readout: Bacterial Biotransformation

# compound, Bacterial Biotransformation
measured = [
    ("CC(C)(C)NCC(O)COc1cccc2c1CC(O)C(O)C2 (stereo not drawn)", "Compound NOT metabolized"),
    ("Cc1nc(-c2ccc(OCC(C)C)c(C#N)c2)sc1C(=O)O", "Compound NOT metabolized"),
    ("CN1C(C(=O)Nc2ccccn2)=C(O)c2sccc2S1(=O)=O", "Compound NOT metabolized"),
    ("CN1CCN(C2=Nc3cc(Cl)ccc3Nc3ccccc32)CC1", "Compound NOT metabolized"),
    ("CCCC1O[C@@H]2C[C@H]3[C@@H]4CCC5=CC(=O)C=C[C@]5(C)[C@H]4[C@@H](O)C[C@]3(C)[C@]2(C(=O)CO)O1 (stereo partly drawn) [BUDESONIDE]", "Compound metabolized"),
    ("CNS(=O)(=O)Cc1ccc2[nH]cc(CCN(C)C)c2c1.O=C(O)CCC(=O)O [SUMATRIPTAN SUCCINATE]", "Compound metabolized"),
    ("CCN(CC)CCOC(=O)C1(C2CCCCC2)CCCCC1", "Compound NOT metabolized"),
    ("CCC(=O)NCC[C@@H]1CCc2ccc3c(c21)CCO3", "Compound metabolized"),
    ("CN(C)CCc1c[nH]c2ccc(Cn3cncn3)cc12.O=C(O)c1ccccc1 [RIZATRIPTAN BENZOATE]", "Compound NOT metabolized"),
    ("CN[C@H]1CC[C@@H](c2ccc(Cl)c(Cl)c2)c2ccccc21", "Compound NOT metabolized"),
]

Item NC(CO)(CO)CO.O=C(c1ccccc1)c1ccc2n1CCC2C(=O)O (stereo not drawn) has what recorded Bacterial Biotransformation?
Compound metabolized

Please do the same for C#C[C@]1(OC(C)=O)CC[C@H]2[C@@H]3CCC4=C/C(=N/O)CC[C@@H]4[C@H]3CC[C@@]21CC [NORGESTIMATE] as well.
Compound NOT metabolized

Continue with O=C(O)COCCN1CCN(C(c2ccccc2)c2ccc(Cl)cc2)CC1 (stereo not drawn)
Compound metabolized

Could you do the same for COc1ccc2[nH]c([S+]([O-])Cc3ncc(C)c(OC)c3C)nc2n1 (stereo not drawn) , please?
Compound metabolized

====

- experiment: The drug is tested on Clostridium ramosum strain: DSM1402 for biotransformation. The drug concentrations were measured before and after a 12-h incubation by liquid-chromatography-coupled mass spectrometry (LC–MS)
- condition.label: thomasclavelia ramosa, 2 µM
assay.readout: Bacterial Biotransformation

Here are 7 compounds together with their reported answers.
# compound, assay.readout, result
rows = [
    ("CCS(=O)(=O)CCn1c([N+](=O)[O-])cnc1C [TINIDAZOLE]", "Bacterial Biotransformation", "Compound metabolized"),
    ("O=C(O)CCC(=O)O.O=C(O[C@H]1CN2CCC1CC2)N1CCc2ccccc2[C@@H]1c1ccccc1 [SOLIFENACIN SUCCINATE]", "Bacterial Biotransformation", "Compound NOT metabolized"),
    ("CN1CC(=O)N2[C@H](c3ccc4c(c3)OCO4)c3[nH]c4ccccc4c3C[C@@H]2C1=O", "Bacterial Biotransformation", "Compound NOT metabolized"),
    ("CCCCCCOC(=O)/N=C(/N)c1ccc(NCc2nc3cc(C(=O)N(CCC(=O)OCC)c4ccccn4)ccc3n2C)cc1.CS(=O)(=O)O [DABIGATRAN ETEXILATE MESYLATE]", "Bacterial Biotransformation", "Compound NOT metabolized"),
    ("OCCN1CCN(CCCN2c3ccccc3Sc3ccc(C(F)(F)F)cc32)CC1 [FLUPHENAZINE]", "Bacterial Biotransformation", "Compound metabolized"),
    ("C[C@]12C=CC(=O)C=C1CC[C@@H]1[C@@H]2C(=O)C[C@@]2(C)[C@H]1CC[C@]2(O)C(=O)CO [PREDNISONE]", "Bacterial Biotransformation", "Compound NOT metabolized"),
    ("Cc1nc(Nc2ncc(C(=O)Nc3c(C)cccc3Cl)s2)cc(N2CCN(CCO)CC2)n1.O [DASATINIB]", "Bacterial Biotransformation", "Compound NOT metabolized"),
]

Next up:
What value of measured Bacterial Biotransformation is listed for CCC(C)n1ncn(-c2ccc(N3CCN(c4ccc(OCC5COC(Cn6cncn6)(c6ccc(Cl)cc6Cl)O5)cc4)CC3)cc2)c1=O (stereo not drawn) [ITRACONAZOLE] ?
Compound NOT metabolized

====

- experiment: The drug is tested on Eubacterium rectale strain: ATCC33656 for biotransformation. The drug concentrations were measured before and after a 12-h incubation by liquid-chromatography-coupled mass spectrometry (LC–MS)
- condition.label: agathobacter rectalis, 2 µM
assay.readout: Bacterial Biotransformation

# compound, Bacterial Biotransformation
rows = [
    ("CC(CN1c2ccccc2Sc2ccccc21)N(C)C (stereo not given) [PROMETHAZINE]", "Compound NOT metabolized"),
    ("OCCN1CCN(CCCN2c3ccccc3Sc3ccc(C(F)(F)F)cc32)CC1 [FLUPHENAZINE]", "Compound metabolized"),
    ("COc1ccnc(C[S+]([O-])c2nc3ccc(OC(F)F)cc3[nH]2)c1OC (stereo not given) [PANTOPRAZOLE]", "Compound metabolized"),
    ("O=C(Nc1ccccc1)OCC(CN1CCCCC1)OC(=O)Nc1ccccc1 (stereo not given) [DIPERODON]", "Compound NOT metabolized"),
    ("CC(=O)Oc1ccc(C(c2ccc(OC(C)=O)cc2)c2ccccn2)cc1 [BISACODYL]", "Compound metabolized"),
    ("COc1cc2nc(N3CCN(C(=O)c4ccco4)CC3)nc(N)c2cc1OC [PRAZOSIN]", "Compound NOT metabolized"),
]

I have this compound here, CC(C)(C)NC[C@H](O)COc1ccccc1C1CCCC1.CC(C)(C)NC[C@H](O)COc1ccccc1C1CCCC1.O=S(=O)(O)O [PENBUTOLOL SULFATE] , and I need its recorded Bacterial Biotransformation.
Compound NOT metabolized

Next up: COC(=O)Nc1nc2ccc(C(=O)c3ccccc3)cc2[nH]1 [MEBENDAZOLE]
Compound NOT metabolized

Please give the result for CC(=O)OCC(=O)[C@@]1(O)[C@@H](C)C[C@H]2[C@@H]3CCC4=CC(=O)C=C[C@]4(C)[C@@]3(F)[C@@H](O)C[C@@]21C [BETAMETHASONE ACETATE] too.
Compound NOT metabolized

How about COc1c(C)c2c(c(O)c1C/C=C(\C)CCC(=O)OCCN1CCOCC1)C(=O)OC2 [MYCOPHENOLATE MOFETIL] ?
Compound metabolized

====

- condition.label: bacteroides fragilis, 12 h, 2 µM
- Description: The drug is tested on Bacteroides fragilis strain: NCTC 9343 for biotransformation. The drug concentrations were measured before and after a 12-h incubation by liquid-chromatography-coupled mass spectrometry (LC–MS)
assay.readout: Bacterial Biotransformation

Recorded results for 6 compounds are shown here.
# compound, Bacterial Biotransformation
measured = [
    ("CC(C)(C)N.CCC[C@H](N[C@@H](C)C(=O)N1[C@H](C(=O)O)C[C@@H]2CCCC[C@@H]21)C(=O)OCC", "Compound NOT metabolized"),
    ("C=CCc1ccccc1OCC(O)CNC(C)C (configuration not stated)", "Compound NOT metabolized"),
    ("O=P(O)(O)O.c1ccc(CN(CC2=NCCN2)c2ccccc2)cc1 [ANTAZOLINE PHOSPHATE]", "Compound NOT metabolized"),
    ("CC(=O)OCC(=O)[C@@]1(OC(C)=O)[C@@H](C)C[C@H]2[C@@H]3C[C@H](F)C4=CC(=O)C=C[C@]4(C)[C@@]3(F)[C@@H](O)C[C@@]21C [DIFLORASONE DIACETATE]", "Compound metabolized"),
    ("O=C(Nc1ccccc1)OCC(CN1CCCCC1)OC(=O)Nc1ccccc1 (configuration not stated)", "Compound NOT metabolized"),
    ("CN1CCN(C2=Nc3ccccc3Oc3ccc(Cl)cc32)CC1.O=C(O)CCC(=O)O [LOXAPINE SUCCINATE]", "Compound NOT metabolized"),
]

For the next question, use this compound.
I'd like to know its Bacterial Biotransformation. The compound in question is CCN(CC)C(C)CN1c2ccccc2Sc2ccccc21 (configuration not stated)
Compound NOT metabolized
